Recorded values, source patent US20240116933A1.

A collection of molecules and their measured IC50
Molecular target: NLRP3 inflammasome (Homo sapiens, UniProt Q96P20)
Construct: endogenous in cells
Sequence (Q96P20 whole entry): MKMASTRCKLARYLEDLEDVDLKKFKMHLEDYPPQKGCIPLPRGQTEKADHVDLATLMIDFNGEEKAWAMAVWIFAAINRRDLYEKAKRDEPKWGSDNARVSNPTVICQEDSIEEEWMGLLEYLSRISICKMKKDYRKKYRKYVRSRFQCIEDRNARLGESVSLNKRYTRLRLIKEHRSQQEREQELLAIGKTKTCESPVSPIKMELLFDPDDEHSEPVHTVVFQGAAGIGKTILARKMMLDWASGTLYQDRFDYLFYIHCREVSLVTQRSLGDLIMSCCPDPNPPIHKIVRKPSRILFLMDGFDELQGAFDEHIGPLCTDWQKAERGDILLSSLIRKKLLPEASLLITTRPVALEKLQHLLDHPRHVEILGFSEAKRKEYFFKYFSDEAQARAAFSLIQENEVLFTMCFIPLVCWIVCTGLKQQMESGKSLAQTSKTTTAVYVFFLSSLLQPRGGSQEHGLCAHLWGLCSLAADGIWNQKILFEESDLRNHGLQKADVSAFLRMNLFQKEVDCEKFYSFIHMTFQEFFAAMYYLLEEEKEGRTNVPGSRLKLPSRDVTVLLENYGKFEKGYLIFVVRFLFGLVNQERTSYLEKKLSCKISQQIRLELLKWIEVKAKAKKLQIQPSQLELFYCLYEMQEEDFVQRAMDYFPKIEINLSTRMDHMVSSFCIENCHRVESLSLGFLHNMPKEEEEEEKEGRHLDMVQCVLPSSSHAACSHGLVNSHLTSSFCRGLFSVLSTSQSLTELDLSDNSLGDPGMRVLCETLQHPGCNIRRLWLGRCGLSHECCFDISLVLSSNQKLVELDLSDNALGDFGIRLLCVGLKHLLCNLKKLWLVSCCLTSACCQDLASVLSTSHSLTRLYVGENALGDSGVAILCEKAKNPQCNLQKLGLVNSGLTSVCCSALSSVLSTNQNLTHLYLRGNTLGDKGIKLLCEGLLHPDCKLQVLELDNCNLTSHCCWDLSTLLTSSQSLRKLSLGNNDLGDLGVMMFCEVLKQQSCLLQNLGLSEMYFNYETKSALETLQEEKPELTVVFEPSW
Experiment: THP-1 Cell-Based NLRP3 Activation Assay
Conditions: THP-1 cells, PMA, 100 ng/mL LPS 3 hrs, 30 min pre-incubation with test compound, 10 μM nigericin 1 hr

Below are worked cases with known answers.
molecule: CN(Cc1cnc(CO)c2cn[nH]c12)C(=O)c1ccc(-c2cc(F)cc(Cl)c2)c(OC2COC2)c1
measured_result: < 1 µM
--
molecule: CCOc1cc(C(=O)N(C)Cc2cccc3cn[nH]c23)sc1-c1cccc(F)c1
measured_result: < 1 µM
--
molecule: CCOc1cc(C(=O)N(C)[C@H](C)c2cc(F)cc3cn[nH]c23)ccc1-c1cccc(F)c1
measured_result: < 50 µM

As a next step, examine the molecule that follows.
QUERY: Query: IC50; subject: CCOc1cc(C(=O)N(C)Cc2cnc(C(C)O)c3cn[nH]c23)ccc1-c1nc(Cl)cs1 (stereo not shown)
RESULT: < 1 µM

* * *

Molecular target: NLRP3 inflammasome (Homo sapiens)
Construct: endogenous in cells
Test: THP-1 Cell-Based NLRP3 Activation Assay
Settings: THP-1 cells, PMA, 100 ng/mL LPS 3 hrs, 30 min pre-incubation with test compound, 10 μM nigericin 1 hr
measured_quantity: IC50

The following compounds have reported results that may help.
compound: CN(Cc1cnc(CO)c2cn[nH]c12)C(=O)c1cc(F)c(-c2cccc(Cl)c2)c(OC2CC2)c1
IC50: < 1000 nM
--
compound: CCCOc1cc(C(=O)N(C)Cc2cnc(CO)c3cn[nH]c23)cc(F)c1-c1cc(F)cc(F)c1
IC50: < 1000 nM
--
compound: CCOc1cc(C(=O)N(C)Cc2cnc(C)c3cn[nH]c23)ccc1-c1cc(F)cs1
IC50: < 10000 nM
--
compound: CCOc1cc(C(=O)N(C)Cc2cnc(CO)c3cn[nH]c23)cc(Cl)c1-c1cccc(F)c1
IC50: < 10000 nM
--
compound: CN(Cc1cc(O)cc2cn[nH]c12)C(=O)c1cc(F)c(-c2cccc(F)c2)c(OC2CC2)c1
IC50: < 1000 nM

QUERY: Which measured IC50 value corresponds to `Cc1ncc(CN(C)C(=O)c2cc(F)c(-c3cccc(F)c3)c(OC3CC3)c2)c2[nH]ncc12` ?
RESULT: < 1000 nM

QUERY: Returns the measured IC50 for the input compound. Input: `CCOc1cc(C(=O)N(C)Cc2c(O)ccc3cn[nH]c23)ccc1-c1cccc(F)c1`
RESULT: < 1000 nM

QUERY: State the recorded IC50 for this entry: `CCOc1cc(C(=O)N(C)[C@H](C)c2cccc3cn[nH]c23)ccc1-c1cccc(F)c1`
RESULT: < 50000 nM

* * *

The following molecules are listed with their measured IC50 values.
Biological target: NLRP3 inflammasome (Homo sapiens)
Construct: endogenous in cells
Assay: THP-1 Cell-Based NLRP3 Activation Assay
Settings: THP-1 cells, PMA, 100 ng/mL LPS 3 hrs, 30 min pre-incubation with test compound, 10 μM nigericin 1 hr

sample_smiles: Cc1nc(C)c2cn[nH]c2c1CN(C)C(=O)c1cc(F)c(-c2cccc(Cl)c2)c(OC2CC2)c1
measured_quantity: IC50
measured_result: < 1000 nM

sample_smiles: CCOc1nc(C(=O)N(C)[C@H](C)c2ccc(CF)c3cn[nH]c23)ccc1-c1cccc(F)c1
measured_quantity: IC50
measured_result: < 50000 nM

Next molecule, please.
QUERY: Name the recorded IC50 for `CCOc1cc(C(=O)N(C)Cc2cnc(CO)c3cn[nH]c23)cc(F)c1-c1cc(F)cc(F)c1` .
RESULT: < 1000 nM
